B1: LINE1-full (parent)
chain: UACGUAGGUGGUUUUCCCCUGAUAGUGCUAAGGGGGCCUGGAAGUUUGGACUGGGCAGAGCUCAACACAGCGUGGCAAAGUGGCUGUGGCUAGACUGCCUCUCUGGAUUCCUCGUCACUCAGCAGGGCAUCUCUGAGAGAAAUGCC

Variants of: B1
EXPERIMENTAL_PROTOCOL: self-cleavage, relative activity (ratio to wild type); higher = more cleavage; in vitro, sequencing; the parent is a self-cleaving ribozyme
MEASURED_ENDPOINT: self-cleavage

[[record]]
variant_label = "C18A C37G"
numeric_value = 0.99

[[record]]
variant_label = "A50G A121C"
numeric_value = 1.23

[[record]]
variant_label = "G74A C84U"
numeric_value = 0.07

[[record]]
variant_label = "A79G U102C"
numeric_value = 0.89

[[record]]
variant_label = "G36U U73A"
numeric_value = 0.46

[[record]]
variant_label = "G54U G82A"
numeric_value = 1.26

[[record]]
variant_label = "G4U U134A"
numeric_value = 1.07

[[record]]
variant_label = "C17U A138U"
numeric_value = 1.29

[[record]]
variant_label = "G41A A141G"
numeric_value = 0.96

